Assay: Quantitative High-Throughput drug screen in 47 multiple myeloma cell lines against the NCATS MIPE library collection: KMS28BM_JCRB cell viability assay (AID 1919874); also: nearly all actives have a fitted effect of over 35% in size
Settings: CellTiter-Glo ATP, 48 h; series mostly up to 45.8 µM
Records with an inconclusive call do not appear. The source made the active and inactive calls. Calls follow the shape of the dose curve; as a rule, active = well fitted cell-killing curve with a large enough effect; inconclusive = small, poorly fitted or top-dose-only effect, or effect the other way; inactive = no such curve, though single readings can be large or run the other way.
Respond with a class label; see active, inactive

Incoming: Give the logged outcome of this assay for the following molecule: Cc1cc(Nc2cc(CN3CCOCC3)c3nc(C)c(Cc4ccc(Cl)cc4F)n3n2)n[nH]1
Outgoing: active

Incoming: Give the logged outcome of this assay for the following molecule: C1=CCOCc2cc(ccc2OCCN2CCCC2)Nc2nccc(n2)-c2cccc(c2)OCC1
Outgoing: active

Incoming: Give the logged outcome of this assay for the following molecule: CCN1CCN(CC(=O)Nc2ccc(-c3cccc4c(=O)cc(N5CCOCC5)oc34)c3sc4ccccc4c23)CC1
Outgoing: active

Incoming: Give the logged outcome of this assay for the following molecule: CC(=O)c1c(C)c2cnc(Nc3ccc(N4CCNCC4)cn3)nc2n(C2CCCC2)c1=O
Outgoing: active

Incoming: Give the logged outcome of this assay for the following molecule: CC(C)(O)c1cc2nc(-c3cnc(N)nc3)nc(N3CCOCC3)c2s1
Outgoing: active

Incoming: Give the logged outcome of this assay for the following molecule: Cc1nc2ccc(CN(C)c3ccc(C(=O)N[C@@H](CCC(=O)O)C(=O)O)s3)cc2c(=O)[nH]1
Outgoing: inactive

Incoming: Give the logged outcome of this assay for the following molecule: CC(C)(C)c1cc(NC(=O)Nc2ccc(-c3cn4c(n3)sc3cc(OCCN5CCOCC5)ccc34)cc2)no1
Outgoing: inactive

Incoming: Give the logged outcome of this assay for the following molecule: Cc1cc(C(=O)N2CCN(c3cccc(Cl)c3)CC2)n(-c2ccccc2)n1
Outgoing: active

Incoming: Give the logged outcome of this assay for the following molecule: CC(C)c1cc(-c2n[nH]c(=O)n2-c2ccc3c(ccn3C)c2)c(O)cc1O
Outgoing: active

---

Assay: Cytotoxicity counterscreen for NFkB agonists and antagonists (AID 624476);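 also: cells exposed to compound for 48 hours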
Conditions: NFkB reporter cell line viability counterscreen; series mostly up to 46.1 µM
Results filed as inconclusive are left out. The source made the active and inactive calls. Calls follow the shape of the dose curve; as a rule, active = well fitted curve in the direction sought with a large enough effect; inconclusive = small, poorly fitted or top-dose-only effect, or another doubt; inactive = no such curve, though single readings can be large or run the other way.
Respond with a class label; see active, inactive

Incoming: Give the logged outcome of this assay for the following compound: CC(C)(O)CCc1ccc(OCc2cc(-c3cccc(OC(F)F)c3)c3ncccc3c2)cc1
Outgoing: inactive

Incoming: Give the logged outcome of this assay for the following compound: C=C1C(=CC=C2CCCC3(C)[C@@H]([C@H](C)C=CC=CC(O)(CC)CC)CC[C@@H]23)C[C@@H](O)C[C@@H]1O (some centres undefined)
Outgoing: active

Incoming: Give the logged outcome of this assay for the following compound: Cc1ccc(-c2ncn(-c3ccc(Nc4nccc(-c5cccc(N6CCOCC6)c5)n4)cc3)n2)cn1
Outgoing: active

Incoming: Give the logged outcome of this assay for the following compound: CCN1CCN(Cc2ccc(-c3cc4c(N[C@H](C)c5ccccc5)ncnc4[nH]3)cc2)CC1
Outgoing: active

Incoming: Give the logged outcome of this assay for the following compound: CC[C@@H]1C(=O)N(C)c2cnc(Nc3ccc(C(=O)NC4CCC(N5CCN(CC6CC6)CC5)CC4)cc3OC)nc2N1C(C)C (some centres undefined)
Outgoing: active

Incoming: Give the logged outcome of this assay for the following compound: O=C(C=Cc1c(C(=O)O)[nH]c2cc(Cl)cc(Cl)c12)Nc1ccccc1
Outgoing: inactive

Incoming: Give the logged outcome of this assay for the following compound: COc1cc2c(Oc3ccc(-c4cnc(Nc5ccc(F)cc5)n(C)c4=O)cc3F)ccnc2cc1OCCCN1CCOCC1
Outgoing: active

Incoming: Give the logged outcome of this assay for the following compound: COc1cc2ncnc(Nc3ccc(F)c(Cl)c3)c2cc1NC(=O)C=CCN1CCCCC1
Outgoing: active

Incoming: Give the logged outcome of this assay for the following compound: CC[C@@H]1C(=O)N(C)c2cnc(Nc3ccc(C(=O)NC4CCN(C)CC4)cc3OC)nc2N1C1CCCC1
Outgoing: active

---

Test: Quantitative High-Throughput drug screen in 47 multiple myeloma cell lines against the NCATS MIPE library collection: SKMM1_PLB cell viability assay (AID 1919863); also: potency is read from the fitted curve at half-maximal effect; nearly all actives have a fitted effect of over 35% in size
Settings: SKMM1 myeloma viability, CellTiter-Glo ATP, 48 h
Records with an inconclusive call do not appear. Active and inactive are the calls of the source. Calls follow the shape of the dose curve; as a rule, active = well fitted cell-killing curve with a large enough effect; inconclusive = small, poorly fitted or top-dose-only effect, or effect the other way; inactive = no such curve, though single readings can be large or run the other way.
Readout Kind: Potency

Incoming: Param item = Cc1nc2cnc3ccc(C#Cc4cccnc4)cc3c2n1-c1ccc(C(C)(C)C#N)cc1 ; retrieve measured Potency.
Outgoing: 3.72 µM (active)

Incoming: Param item = Nc1ccc(C(=O)c2cc3c(ccc4ccccc43)[nH]2)cc1 ; retrieve measured Potency.
Outgoing: 2.96 µM (active)

Incoming: Param item = CCCCOc1c(C(=O)c2c(F)cc(C)cc2F)cnc2n[nH]cc12 ; retrieve measured Potency.
Outgoing: 5.26 µM (active)

Incoming: Param item = Cc1nc(N)ncc1-c1nc(N2CCOCC2)c2sc(C(C)(C)O)cc2n1 ; retrieve measured Potency.
Outgoing: 0.166 µM (active)

Incoming: Param item = CC(NCc1ccc2c(c1)nc(NC(=O)c1ccc(-c3cn[nH]c3)s1)n2CC(C)(C)O)C(C)(C)C (configuration not stated) ; retrieve measured Potency.
Outgoing: 0.743 µM (active)

Incoming: Param item = OCc1ccc(-c2ccc(-c3ccc(CO)s3)o2)s1 ; retrieve measured Potency.
Outgoing: 20.9 µM (active)

Incoming: Param item = OCCCNc1cc(-c2ccnc(Nc3cccc(Cl)c3)n2)ccn1 ; retrieve measured Potency.
Outgoing: 0.148 µM (active)

Incoming: Param item = CN(C)Cc1c(C(=O)NCCOc2ccc(C(=O)NO)cc2)oc2ccccc12 ; retrieve measured Potency.
Outgoing: 1.05 µM (active)

Incoming: Param item = O=C(Nc1nc2cccc(-c3ccc(CN4CCS(=O)(=O)CC4)cc3)n2n1)C1CC1 ; retrieve measured Potency.
Outgoing: 16.6 µM (active)

Incoming: Param item = COc1cc2c(cc1-c1c(C)noc1C)ncc1[nH]c(=O)n([C@H](C)c3ccccn3)c12 ; retrieve measured Potency.
Outgoing: 0.743 µM (active)

Incoming: Param item = Cc1cn2c(-c3cn[nH]c3)cnc2c(Nc2ccc(C(=O)N3CCNCC3)cc2F)n1 ; retrieve measured Potency.
Outgoing: 18.7 µM (active)

Incoming: Param item = Nc1cc(C(F)(F)F)c(-c2cc(N3CCOCC3)nc(N3CCOCC3)n2)cn1 ; retrieve measured Potency.
Outgoing: 0.662 µM (active)

Incoming: Param item = CN1CCN(Cc2ccc(NC(=O)Nc3ccc(Oc4cc(NC(=O)C5CC5)ncn4)cc3)cc2C(F)(F)F)CC1 ; retrieve measured Potency.
Outgoing: 0.332 µM (active)

Incoming: Param item = Cc1cnc(Nc2ccc(F)cc2Cl)nc1-c1c[nH]c(C(=O)N[C@H](CO)c2cccc(Cl)c2)c1 ; retrieve measured Potency.
Outgoing: 20.9 µM (active)

Incoming: Param item = COc1cc(-c2nn(C3CCC(N4CCN(C(C)=O)CC4)CC3)c3ncnc(N)c23)ccc1NC(=O)c1cc2ccccc2n1C (configuration not stated) ; retrieve measured Potency.
Outgoing: 14.8 µM (active)

Incoming: Param item = CCN1CCN(CC(=O)Nc2ccc(-c3cccc4c(=O)cc(N5CCOCC5)oc34)c3sc4ccccc4c23)CC1 ; retrieve measured Potency.
Outgoing: 7.43 µM (active)

Incoming: Param item = CN1CCC(CNc2ccc3ncc(-c4cccc(OC(F)(F)F)c4)n3n2)CC1 ; retrieve measured Potency.
Outgoing: 23.5 µM (active)

Incoming: Param item = CC(C)CC(=O)Nc1n[nH]c2c1CN(C(=O)C1CCN(C)CC1)C2(C)C ; retrieve measured Potency.
Outgoing: 4.69 µM (active)

Incoming: Param item = COc1cc2ncn(-c3cc(OCc4ccccc4C(F)(F)F)c(C(N)=O)s3)c2cc1OC ; retrieve measured Potency.
Outgoing: 0.166 µM (active)

Incoming: Param item = O=C(CCCCCCNC(=O)c1cnc(N(c2ccccc2)c2ccccc2)nc1)NO ; retrieve measured Potency.
Outgoing: 9.35 µM (active)

Incoming: Param item = O=C(NCCCNc1nc(Nc2cccc(NC(=O)N3CCCC3)c2)ncc1I)c1cccs1 ; retrieve measured Potency.
Outgoing: 20.9 µM (active)

Incoming: Param item = Cc1[nH]nc2ccc(-c3cncc(OC[C@@H](N)Cc4ccccc4)c3)cc12 ; retrieve measured Potency.
Outgoing: 8.33 µM (active)

---

Give Potency for every item shown.
Assay: Quantitative High-Throughput drug screen in 47 multiple myeloma cell lines against the NCATS MIPE library collection: MM1S_ATCC cell viability assay (AID 1918980); also: potency is read from the fitted curve at half-maximal effect; nearly all actives have a fitted effect of over 45% in size
Conditions: MM1S myeloma viability, CellTiter-Glo ATP luminescence, 48 h; series mostly up to 45.8 µM
Results filed as inconclusive are left out. Calls of active or inactive are those of the source. Calls come from the whole dose curve; as a rule, active = well fitted cell-killing curve with a large enough effect; inconclusive = small, poorly fitted or top-dose-only effect, or effect the other way; inactive = no such curve, though single readings can be large or run the other way.

Incoming: Param item = CC1(C)O[C@@H]2C[C@@H]3[C@H]4C[C@@H](F)C5=CC(=O)C=C[C@]5(C)[C@@]4(F)[C@@H](O)C[C@]3(C)[C@]2(C(=O)CO)O1 ; retrieve measured Potency.
Outgoing: 0.0118 µM (active)

Incoming: Param item = C[C@@H]1COC(Nc2ccc3ncnc(Nc4ccc(OCc5nccs5)c(Cl)c4)c3c2)=N1 ; retrieve measured Potency.
Outgoing: 4.18 µM (active)

Incoming: Param item = CCN(CC)CCNC(=O)c1ccc2nc(-c3ccccc3)c(-c3ccc(CN4CCC(n5c(=O)[nH]c6ccccc65)CC4)cc3)nc2c1 ; retrieve measured Potency.
Outgoing: 8.33 µM (active)
